Some molecules, each annotated with its measured Response bound at 50 nM mAb or Fab (RU).
biological target: T1, hANGPTL4(26-148)-mFc (Homo sapiens, UniProt Q9BY76); experiment: BIACORE, full mAb or Fab over anti-mFc captured hANGPTL4(26-148)-mFc; assay type: binding; conditions: pH 7.2, 25° C., antigen captured 35 ± 1.9 RU
T1 construct: amino acid residues 26-148 of human ANGPTL4 fused in-line to mouse IgG2a (hANGPTL4-mFc)
T1 sequence (Q9BY76 with tags, fused parts or gaps): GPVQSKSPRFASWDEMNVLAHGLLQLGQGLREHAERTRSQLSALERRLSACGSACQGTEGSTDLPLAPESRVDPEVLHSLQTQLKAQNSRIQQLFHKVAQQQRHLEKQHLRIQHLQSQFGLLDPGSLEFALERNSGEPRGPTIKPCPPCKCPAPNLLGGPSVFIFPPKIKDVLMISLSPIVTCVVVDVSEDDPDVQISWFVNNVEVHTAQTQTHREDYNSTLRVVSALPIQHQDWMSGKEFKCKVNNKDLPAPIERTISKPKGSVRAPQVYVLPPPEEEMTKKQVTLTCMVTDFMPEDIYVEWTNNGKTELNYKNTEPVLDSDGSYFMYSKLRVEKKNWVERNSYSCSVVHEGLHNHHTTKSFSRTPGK
Provide a numeric answer; units are not to be included.

Query: Query Response bound at 50 nM mAb or Fab (RU) for H1H284P: anti-hANGPTL4 antibody, hIgG1 isotype, HCVR/LCVR SEQ ID NOs 90/92 (antibody, V domains shown) VH: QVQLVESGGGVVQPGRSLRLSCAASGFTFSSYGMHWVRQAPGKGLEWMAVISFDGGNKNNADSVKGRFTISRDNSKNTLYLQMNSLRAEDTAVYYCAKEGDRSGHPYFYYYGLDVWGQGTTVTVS VL: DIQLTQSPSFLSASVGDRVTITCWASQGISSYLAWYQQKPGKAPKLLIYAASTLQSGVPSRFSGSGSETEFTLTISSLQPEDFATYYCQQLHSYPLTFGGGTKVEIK
Response: 99

Query: Query Response bound at 50 nM mAb or Fab (RU) for H1H268P Fab: Fab fragment of H1H268P prepared by papain digestion (antibody, V domains shown) VH: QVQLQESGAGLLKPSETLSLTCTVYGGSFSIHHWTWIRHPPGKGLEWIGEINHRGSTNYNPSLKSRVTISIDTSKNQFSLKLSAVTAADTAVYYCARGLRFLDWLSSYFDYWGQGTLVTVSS VL: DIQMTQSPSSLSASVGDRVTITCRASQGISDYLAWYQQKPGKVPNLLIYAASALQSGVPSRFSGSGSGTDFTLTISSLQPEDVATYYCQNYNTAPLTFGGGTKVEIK
Response: 10

Query: Query Response bound at 50 nM mAb or Fab (RU) for H1H268P: anti-hANGPTL4 antibody, hIgG1 isotype, HCVR/LCVR SEQ ID NOs 42/44 (antibody, V domains shown) VH: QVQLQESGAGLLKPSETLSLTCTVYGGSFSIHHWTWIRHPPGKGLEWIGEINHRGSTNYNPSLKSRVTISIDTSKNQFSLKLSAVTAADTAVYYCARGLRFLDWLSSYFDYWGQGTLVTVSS VL: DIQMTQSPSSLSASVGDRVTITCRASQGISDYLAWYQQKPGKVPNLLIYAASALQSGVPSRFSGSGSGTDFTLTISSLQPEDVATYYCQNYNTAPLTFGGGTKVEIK
Response: 40
